molecular target: KRAS-G12D protein (Homo sapiens, UniProt P01116, G12D); assay: SOS-mediated nucleotide exchange assay (BODIPY-GDP / Tb-streptavidin TR-FRET); type: biochemical
Sequence (P01116 1-188 isoform P01116-2 G12D): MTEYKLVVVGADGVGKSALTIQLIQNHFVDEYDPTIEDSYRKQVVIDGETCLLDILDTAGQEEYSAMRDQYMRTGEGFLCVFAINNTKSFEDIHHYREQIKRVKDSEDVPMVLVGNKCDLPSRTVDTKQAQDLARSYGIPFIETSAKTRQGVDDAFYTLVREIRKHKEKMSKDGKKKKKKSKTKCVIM
*1 amine or outer side, *2 acyl side, *3 side chain or, on linkers, in order; H or OH if unused. Where a SMILES comes first, the peptide text is derived from it. Bridges are numbered along the chain shown (N, C = ends). [ ]: non-standard residue; d: D form. Ala(pyrimidin-5-yl) = N[C@@H](Cc1cncnc1)C(=O)O; NMePhe(4-Me) = CN[C@@H](Cc1ccc(C)cc1)C(=O)O; NMeHis(τ-Me) = CN[C@@H](Cc1cn(C)cn1)C(=O)O; Phe(4-F) = N[C@@H](Cc1ccc(F)cc1)C(=O)O; Phe(2-F) = N[C@@H](Cc1ccccc1F)C(=O)O; X31 = O=C([C@H](CCC1CC1)N[*:1])[*:2]; Abu(4,4-F2) = N[C@@H](CC(F)F)C(=O)O; X1 = O=C(C12CC(CN[*:1])(C1)C2)[*:2]; Ala(cPr) = N[C@@H](CC1CC1)C(=O)O; NMeF = CN[C@@H](Cc1ccccc1)C(=O)O; PhLac = O=C(O)[C@@H](O)Cc1ccccc1; hIle = CC[C@H](C)C[C@H](N)C(=O)O; 3Pal = N[C@@H](Cc1cccnc1)C(=O)O; 4Pal = N[C@@H](Cc1ccncc1)C(=O)O; Ahp(2) = CCCCC[C@H](N)C(=O)O; Cba = N[C@@H](CC1CCC1)C(=O)O; αMeC = C[C@](N)(CS)C(=O)O; NMeA = CN[C@@H](C)C(=O)O; Nle = CCCC[C@H](N)C(=O)O; Nva = CCC[C@H](N)C(=O)O
Recorded measurements of EC50, one per entry
Field: numeric (nM). Do not append units.

Check out these entries, answers already filled in.
>  <compound>
C[C@H]1C(=O)N[C@@H](Cc2cncnc2)C(=O)N[C@@H](CC2CC2)C(=O)N[C@@H](Cc2ccccc2F)C(=O)N[C@@H](CCC2CC2)C(=O)N(C)[C@@H](Cc2ccccc2)C(=O)NCC23CC(C2)(C3)C(=O)O[C@@H](Cc2ccccc2)C(=O)N1C [compound 114] (cyclo([Ala(cPr)][Phe(2-F)][X31][NMeF][X1][PhLac][NMeA][Ala(pyrimidin-5-yl)]))

>  <EC50 (nM)>
2

$$$$
>  <compound>
C[C@H]1C(=O)N[C@@H](Cc2cncnc2)C(=O)N[C@@H](CC2CC2)C(=O)N[C@@H](Cc2ccccc2F)C(=O)N[C@@H](CC(F)F)C(=O)N(C)[C@@H](Cc2ccccc2)C(=O)NCC23CC(C2)(C3)C(=O)O[C@@H](Cc2ccccc2)C(=O)N1C [compound 271] (cyclo([Ala(cPr)][Phe(2-F)][Abu(4,4-F2)][NMeF][X1][PhLac][NMeA][Ala(pyrimidin-5-yl)]))

>  <EC50 (nM)>
730

$$$$
>  <compound>
CCC[C@@H]1NC(=O)[C@H](Cc2ccc(OC)cc2)NC(=O)[C@H](C[C@@H](C)CC)NC(=O)[C@H](Cc2ccncc2)NC(=O)[C@H](CCCNC(=N)N)NC(=O)[C@H](Cc2ccc(F)cc2)NC(=O)CSC[C@H](C(=O)O)NC(=O)[C@H](Cc2ccccc2)N(C)C1=O [compound 62] ({CH2CO}-[Phe(4-F)]R[4Pal][hIle]Y(Me)[Nva][NMeF][dC]-OH; thioether N-8)

>  <EC50 (nM)>
2060

$$$$
>  <compound>
CCCCC[C@@H]1NC(=O)[C@H](Cc2ccc(OC)cc2)NC(=O)[C@H](CC2CCC2)NC(=O)[C@H](Cc2cccnc2)NC(=O)[C@H](CCCNC(=N)N)NC(=O)[C@H](Cc2ccccc2)NC(=O)CSC[C@@](C)(C(N)=O)NC(=O)[C@H](Cc2cn(C)cn2)N(C)C1=O [compound 378] ({CH2CO}-FR[3Pal][Cba]Y(Me)[Ahp(2)][NMeHis(τ-Me)][αMeC]-NH2; thioether N-8)

>  <EC50 (nM)>
45.2

$$$$
>  <compound>
C[C@H]1C(=O)N[C@@H](Cc2cncnc2)C(=O)N[C@@H](CC2CC2)C(=O)N[C@@H](Cc2ccccc2F)C(=O)N[C@@H](CC2CC2)C(=O)N(C)[C@@H](Cc2ccccc2)C(=O)NCC23CC(C2)(C3)C(=O)O[C@@H](Cc2ccccc2)C(=O)N1C [compound 267] (cyclo([Ala(cPr)][NMeF][X1][PhLac][NMeA][Ala(pyrimidin-5-yl)][Ala(cPr)][Phe(2-F)]))

>  <EC50 (nM)>
471

$$$$

Moving on to another compound below.
Q) Hi! What's the reported EC50 for CCCC[C@@H]1NC(=O)[C@H](Cc2cncnc2)NC(=O)[C@H](C)N(C)C(=O)[C@H](Cc2ccccc2)OC(=O)C23CC(CNC(=O)[C@H](Cc4ccc(C)cc4)N(C)C(=O)[C@H](CCCC)NC(=O)[C@H](Cc4ccccc4F)NC1=O)(C2)C3 [compound 171] (cyclo([NMeA][Ala(pyrimidin-5-yl)][Nle][Phe(2-F)][Nle][NMePhe(4-Me)][X1][PhLac])) on KRAS-G12D protein (Homo sapiens, UniProt P01116, G12D)?
A) 19.1
